Molecular target: K63-tetraubiquitin chains, P0CG48
Sequence (P0CG48 whole entry, looked up): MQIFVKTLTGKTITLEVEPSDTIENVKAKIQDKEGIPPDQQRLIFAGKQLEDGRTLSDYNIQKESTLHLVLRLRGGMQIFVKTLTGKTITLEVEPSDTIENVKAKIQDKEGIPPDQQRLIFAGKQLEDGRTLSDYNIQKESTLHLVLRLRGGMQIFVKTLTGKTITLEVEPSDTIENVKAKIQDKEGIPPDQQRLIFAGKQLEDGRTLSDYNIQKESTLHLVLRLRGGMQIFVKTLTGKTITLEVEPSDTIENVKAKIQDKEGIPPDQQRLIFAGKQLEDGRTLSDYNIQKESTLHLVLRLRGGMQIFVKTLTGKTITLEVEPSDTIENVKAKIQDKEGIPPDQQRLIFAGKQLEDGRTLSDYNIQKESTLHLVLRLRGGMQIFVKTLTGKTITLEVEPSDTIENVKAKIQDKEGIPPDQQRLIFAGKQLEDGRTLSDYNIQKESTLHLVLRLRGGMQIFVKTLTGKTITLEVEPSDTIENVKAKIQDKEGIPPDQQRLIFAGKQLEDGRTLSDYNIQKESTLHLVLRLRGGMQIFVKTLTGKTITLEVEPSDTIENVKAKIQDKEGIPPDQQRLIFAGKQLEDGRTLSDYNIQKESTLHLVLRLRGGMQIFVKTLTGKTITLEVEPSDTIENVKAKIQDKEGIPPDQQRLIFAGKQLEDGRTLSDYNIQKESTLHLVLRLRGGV
property.name: in vitro deubiquitylation activity

Some proteins with known in vitro deubiquitylation activity results, for comparison:
protein	in vitro deubiquitylation activity
GST-OTU4c (protein) MMICYSPITTCSRNAISIKRHLGSRLYGVVAHGSSKFSCYSLLSGLSRRHYTGFRVSVSNRPSSWHDKGLFGFAYTGVIVSLLVCYSSTSQSAYADSSRDKDANNVHHHSSDGKFHNGKRVYTDYSIIGIPGDGRCLFRSVAHGFCLRSGKLAPGEKMQRELADELRTRVADEFIQRRQETEWFVEGDFDTYVRQIRDPHVWGGEPELFMASHVLQMPITVYMKDDKAGGLISIAEYGQEYGKDDPIRVLYHGFGHYDALLLHESKASIPKSKL	+++
His-tagged OTU9 (protein) MGYEPDPDALRWGLHDLEVCTLTNAGSCSSVTRYESGGGGTQGYVREGYNQPVTGYVDNDAVIAQFYQDELSRVARAEASGINSLSPTSVVAQDWPHPHQGQENQGEAIDITQESDILHNHNGNMEDKNVARIRFEGGQSSPSRDDDSVCSVEIEEESWSEVGKRLNQMIPIAHVPKINGELPSEDEQISDHERLFQRLQLYGLVENKIEGDGNCQFRSLSDQLYRSPEHHNFVREQVVNQLAYNREIYEGYVPMAYNDYLKAMKRNGEWGDHVTLQAAADLFGVRMFVITSFKDTCYIEILPHFQKSNRLICLSFWAEVHYNSIYPEGELPIPEGKKKKKYWVF	++
His-tagged OTU2 (protein) MEGIIVRRVIPSDNSCLFNAIGYVMDKDKNKAPELRQVIAAAVASNKEKYNEAFLGKLNEEYCAWILNPDKWGGAIELSILADYYGREIAAYDIQTSRCDLYGQTRNYDERVMLIYDGLHYDALALSPFEGAEEDFDMTIYPVGKDRSIGSIEGLALNLVKDQQRKRSYTDTANFTLRCGVCQIGVIGQKEAVEHAQATGHVNFQEYK	+
His-tagged OTU7a (protein) MAKTKQQKSKPKKQPHQKQGKDCDLSQFRAQLDALGLKIIQVTADGNCFFRAIADQLEGNEDEHNKYRNMIVLYIVKNREMFEPFIEDDVPFEDYCKTMDDDGTWAGNMELQAASLVTRSNICIHRNMSPRWYIRNFEDTRTRMIHLSYHDGEHYNSVRSKEDACGGPARPVVIEADAKVSAASKQAKATESKSKNKADKCHVNAGAIKVVMSGSCCDNTEKAEQVLLQVNGDVDAAIEFLIADQGMESLTENDTETASASDTINPKHASDSPMENTEQAREELIEEESASGNNSETVQAKCTTQTDDKKIPRNKTCPCGSKKKYKSCCGTATGRSSVKLLVSQTMESKKGRKNLRRGTSNEVEANAPDVGALCI	++
GST-OTU10 (protein) MVSHEENTSIVEWFLGPHPYTYPPYGIEMIHEDDEVAVAHHHHHHQSGEYYREYEDHRSSDVDNDEIIARTLQDDFLQLEIAESNDYSHQNQQQQHQQEGYTNNYSNNNNGYAWNDQSPAVDYSSEWIGNDNDQDGRSDDSVNVFSCSSPSDTDEYVYSWESDQCDADGEFGRRLNQMVPIPYIPKINGEIPPEEEAVSDHERLRNRLEMFDFTEVKVPGDGNCQFRALADQLYKTADRHKHVRRQIVKQLKSRPDSYQGYVPMDFSDYLRKMSRSGEWGDHVTLQAAADAYRVKIVVLTSFKDTCYIEILPTSQESKGVIFLSFWAEVHYNAIYLNRDTSETELQRKRKWWRFGN	+++

We next turn to a different protein, shown below.
Indicate its recorded in vitro deubiquitylation activity; the protein in question is His-tagged OTU3 (protein) MELKSSSNNNILEQLRNGFARFELVSSPTASVSDSISSTSLPASFISTTKGNSYVFFARINSSMNRSPAAKKVEKYAVDRVKGDGRCLFRALVKGMAFNKGITLNPQRERDDADELRMAVKEVICNDPKEREKYKEALVAITVDESLKRFCQRIGRHDFWGGESELLVLSKLCKQPIIVYIPEHEHGRGGGYGPGFIPIQEYGSEFRGGWGKGKTNKNVVRLLYSGRNHYDLLR
+++
